These entries and their values trace back to patent US20060040327A1.

- protocol: Fluorescence assay of NBD-labeled MBP mutants, maltotetraitol
- Assay type: binding
- test conditions: ligand maltotetraitol; read-out: Affinity
metric name: pKd
# pKd = -log10(concentration in molar units)

Reported pKd of MBP(D95C)-NBD [CONTROL, reference compound] : 5.35

* * *

- protocol: Fluorescence assay of NBD-labeled MBP mutants, maltotetraose
- Type: binding
- test conditions: ligand maltotetraose; read-out: Affinity
metric name: pKd
By convention, pKd is the negative base-10 log of a molar concentration.

The reported pKd of the substance MBP(D95C)-NBD [CONTROL, reference compound] was 6.70
